measured on: human Claudin-6 (CLDN6) (human) (UniProt P56747)
procedure details: FACS, limiting dilution, ARK2 cells
reported endpoint: FACS signal at 1.6 nM
Enter a number only.

Some solved entries appear below for comparison.
# binder, FACS signal at 1.6 nM
measured = [
    ("AB S12 (antibody, V domains shown) VH: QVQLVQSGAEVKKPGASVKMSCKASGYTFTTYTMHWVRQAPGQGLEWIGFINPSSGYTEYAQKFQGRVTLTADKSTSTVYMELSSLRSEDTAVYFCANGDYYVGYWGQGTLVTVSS VL: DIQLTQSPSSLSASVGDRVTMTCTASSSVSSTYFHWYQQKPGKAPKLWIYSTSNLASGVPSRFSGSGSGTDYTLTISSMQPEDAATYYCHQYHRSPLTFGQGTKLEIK", 2080),
    ("AB S11 (antibody, V domains shown) VH: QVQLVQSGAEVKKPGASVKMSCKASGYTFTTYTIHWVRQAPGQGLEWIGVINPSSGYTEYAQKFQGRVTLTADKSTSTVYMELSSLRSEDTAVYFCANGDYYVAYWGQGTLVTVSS VL: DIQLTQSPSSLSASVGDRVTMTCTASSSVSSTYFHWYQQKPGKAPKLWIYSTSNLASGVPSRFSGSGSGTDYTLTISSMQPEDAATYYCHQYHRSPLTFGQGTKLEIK", 6100),
]

Now consider a different binder.
Q) Look up FACS signal at 1.6 nM: AB S9 (antibody, V domains shown) VH: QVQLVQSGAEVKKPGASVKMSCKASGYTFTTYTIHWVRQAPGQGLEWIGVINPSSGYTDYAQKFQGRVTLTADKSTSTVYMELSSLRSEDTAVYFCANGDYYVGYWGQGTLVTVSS VL: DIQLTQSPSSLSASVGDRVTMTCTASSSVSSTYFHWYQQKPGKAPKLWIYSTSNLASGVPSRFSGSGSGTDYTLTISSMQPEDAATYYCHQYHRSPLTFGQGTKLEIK
A) 16400
